Target: Oxysterols receptor LXR-beta (Homo sapiens, UniProt P55055)
Experiment: Agonist activity at human recombinant LXRbeta expressed in Escherichia coli BL21 cells assessed as association of recombinant SRC1 to LXRbeta ligand binding domain by HTRF assay
pEC50: −log10 of the molar value.
Measured pEC50, listed per entry for reference.

Here is how some molecules turned out for pEC50.
| MOLECULE | RESULT |
| --- | --- |
| C=C[C@@]1(C)CC=C2[C@@H](CC[C@@H]3[C@](C)(C(=O)O)CCC[C@@]23C)C1 | < 4.30 |
| CC(=O)Oc1ccc2c(c1)[C@@]1(C)CCC[C@](C)(C(=O)OC(=O)[C@@]3(C)CCC[C@]4(C)c5cc(OC(C)=O)ccc5CC[C@@H]34)[C@@H]1CC2 [ACETYL PODOCARPIC ACID ANHYDRIDE] | > 8.52 |
| CC(C)CC[C@@H](O)[C@@H](C)[C@H]1CC[C@H]2[C@@H]3CC=C4C[C@@H](O)CC[C@]4(C)[C@H]3CC[C@]12C [22(R)-HYDROXYCHOLESTEROL] | < 4.82 |
| C=C[C@@]1(C)CC=C2[C@@H](CC[C@@H]3[C@](C)(CO)CCC[C@@]23C)C1 | < 4.30 |
| C/C(=C\CC[C@@H](C)[C@H]1CC[C@@]2(C)[C@@H]3CC=C4[C@@H](CC[C@@H](O)C4(C)C)[C@]3(C)CC[C@]12C)C(=O)O | < 4.30 |

Q: Any idea what its pEC50 is? The molecule is C[C@]1(C(=O)O)CCC[C@]2(C)c3cc(O)ccc3CC[C@@H]12
A: < 4.30

Q: Note, next up: C=C(C)[C@@H]1CC[C@]2(C(=O)O)CC[C@]3(C)[C@H](CC[C@@H]4[C@@]5(C)CC[C@H](O)C(C)(C)[C@@H]5CC[C@]43C)[C@@H]12
A: < 4.30

Q: Try C=C[C@@]1(C)CC=C2[C@@H](CC[C@@H]3[C@](C)(C(=O)NCC45CC6CC(CC(C6)C4)C5)CCC[C@@]23C)C1 next.
A: < 4.30

Q: Proceed to CC(C)=CCC[C@@H](C)[C@H]1C[C@H](O)[C@@]2(C)C3=CC[C@H]4C(C)(C)[C@@H](O)CC[C@]4(C)C3=CC[C@]12C
A: < 4.30

====

Biological target: Oxysterols receptor LXR-beta (Homo sapiens)
Settings: BL21
Description: Displacement of [3H2]F3-methyl AA from human recombinant LXRbeta expressed in Escherichia coli BL21 cells
Attribute: LC50
Answer format: numeric, nM implied, no suffix.

Q: Could you share which LC50 value was measured for CC(C)[C@H](C)[C@@]1(C)C[C@@H]1[C@@H](C)[C@H]1CC[C@H]2[C@@H]3CC=C4C[C@@H](O)CC[C@]4(C)[C@@]3(O)[C@H](O)C[C@]12C ?
A: 50000

====

Target: Oxysterols receptor LXR-alpha (Homo sapiens, UniProt Q13133)
Sequence (Q13133 whole entry, the tested form may be a part): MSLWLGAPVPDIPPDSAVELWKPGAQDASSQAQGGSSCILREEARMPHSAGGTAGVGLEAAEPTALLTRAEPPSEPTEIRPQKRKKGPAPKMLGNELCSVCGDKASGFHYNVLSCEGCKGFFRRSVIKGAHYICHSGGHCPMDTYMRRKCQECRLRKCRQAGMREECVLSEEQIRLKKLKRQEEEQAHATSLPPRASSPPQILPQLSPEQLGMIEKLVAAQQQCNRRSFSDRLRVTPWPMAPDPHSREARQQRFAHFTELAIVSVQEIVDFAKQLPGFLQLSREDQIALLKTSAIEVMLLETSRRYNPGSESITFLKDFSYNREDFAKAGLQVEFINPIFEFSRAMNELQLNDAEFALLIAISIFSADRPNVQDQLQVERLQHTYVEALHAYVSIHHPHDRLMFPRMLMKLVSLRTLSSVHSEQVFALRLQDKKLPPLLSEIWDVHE
Experiment: Agonist activity at human recombinant LXRalpha expressed in Escherichia coli BL21 cells assessed as association of recombinant SRC1 to LXRalpha ligand binding domain by HTRF assay
ASSAY METRIC: log10 EC50 (log10 of the value in nM)
For clarity, the numbers are log10 values of EC50 expressed in nM.

| COMPOUND | QUANTITATIVE RESULT |
| --- | --- |
| C=C(CC[C@@H](C)[C@H]1CC[C@H]2[C@@H]3[C@@H](O)[C@@H](O)[C@@]4(O)C[C@@H](O)CC[C@]4(C)[C@H]3CC[C@]12C)C(C)C | 2.23 |
| CC(C)[C@H](C)[C@@]1(C)C[C@@H]1[C@@H](C)[C@H]1CC[C@H]2[C@@H]3CC=C4C[C@@H](O)CC[C@]4(C)[C@@]3(O)[C@H](O)C[C@]12C | 2.65 |

Turning to the following compound.
Q: Please provide the recorded log10 EC50 for CC(C)=CCC[C@@H](C)[C@H]1C[C@H](O)[C@@]2(C)C3=CC[C@H]4C(C)(C)[C@@H](O)CC[C@]4(C)C3=CC[C@]12C , tested on Oxysterols receptor LXR-alpha (Homo sapiens, UniProt Q13133).
A: 1.48

====

Parameter LC50: see the listing below.
Molecular target: Oxysterols receptor LXR-beta (Homo sapiens) (UniProt P55055)
Details: BL21
Please respond with the number in nM and leave the unit unwritten.

| COMPOUND | UNIT STRING | QUANTITATIVE RESULT |
| --- | --- | --- |
| CCCc1c(OCCCSc2ccc(CC(=O)O)cc2Cl)ccc2c(C(F)(F)F)noc12 | nM | 25 |
| C=C[C@@]1(C)CC=C2[C@@H](CC[C@@H]3[C@](C)(CO)CCC[C@@]23C)C1 | nM | 730 |
| CC(C)[C@H](C)[C@@]1(C)C[C@@H]1[C@@H](C)[C@H]1CC[C@H]2[C@@H]3C[C@@H](O)[C@@]4(O)C[C@@H](O)CC[C@]4(C)[C@@]3(O)[C@H](O)C[C@]12C | nM | 200 |
| CC(=O)Oc1ccc2c(c1)[C@@]1(C)CCC[C@](C)(C(=O)OC(=O)[C@@]3(C)CCC[C@]4(C)c5cc(OC(C)=O)ccc5CC[C@@H]34)[C@@H]1CC2 [ACETYL PODOCARPIC ACID ANHYDRIDE] | nM | 1 |
| C/C(=C\CC[C@@H](C)[C@H]1CC[C@@]2(C)[C@@H]3CC=C4[C@@H](CC[C@@H](O)C4(C)C)[C@]3(C)CC[C@]12C)C(=O)O | nM | 390 |

Kindly consider the entry below.
Q: Entry under review: C=C[C@@]1(C)CC=C2[C@@H](CC[C@@H]3[C@](C)(C(=O)O)CCC[C@@]23C)C1 . Reported LC50?
A: 1490

====

Molecular target: Oxysterols receptor LXR-alpha (Homo sapiens, UniProt Q13133)
Assay: Agonist activity at human recombinant LXRalpha expressed in Escherichia coli BL21 cells assessed as association of recombinant SRC1 to LXRalpha ligand binding domain by HTRF assay
The following molecules are listed with their measured pEC50 values.
API: returns pEC50 as number; meaning -log10 of concentration in mol/L.

| MOLECULE | QUANTITATIVE RESULT |
| --- | --- |
| CC(=O)Oc1ccc2c(c1)[C@@]1(C)CCC[C@](C)(C(=O)OC(=O)[C@@]3(C)CCC[C@]4(C)c5cc(OC(C)=O)ccc5CC[C@@H]34)[C@@H]1CC2 [ACETYL PODOCARPIC ACID ANHYDRIDE] | 9.00 |
| C=C[C@@]1(C)CC=C2[C@@H](CC[C@@H]3[C@](C)(CO)CCC[C@@]23C)C1 | 6.41 |
| CC(C)[C@H](C)[C@@]1(C)C[C@@H]1[C@@H](C)[C@H]1CC[C@H]2[C@@H]3C[C@@H](O)[C@@]4(O)C[C@@H](O)CC[C@]4(C)[C@@]3(O)[C@H](O)C[C@]12C | 7.30 |

Q: Any idea what pEC50 was measured for C=C[C@@]1(C)CC=C2[C@@H](CC[C@@H]3[C@](C)(C(=O)O)CCC[C@@]23C)C1 ?
A: 6.74

====

Molecular target: Oxysterols receptor LXR-beta (Homo sapiens) (UniProt P55055)
Sequence (whole entry): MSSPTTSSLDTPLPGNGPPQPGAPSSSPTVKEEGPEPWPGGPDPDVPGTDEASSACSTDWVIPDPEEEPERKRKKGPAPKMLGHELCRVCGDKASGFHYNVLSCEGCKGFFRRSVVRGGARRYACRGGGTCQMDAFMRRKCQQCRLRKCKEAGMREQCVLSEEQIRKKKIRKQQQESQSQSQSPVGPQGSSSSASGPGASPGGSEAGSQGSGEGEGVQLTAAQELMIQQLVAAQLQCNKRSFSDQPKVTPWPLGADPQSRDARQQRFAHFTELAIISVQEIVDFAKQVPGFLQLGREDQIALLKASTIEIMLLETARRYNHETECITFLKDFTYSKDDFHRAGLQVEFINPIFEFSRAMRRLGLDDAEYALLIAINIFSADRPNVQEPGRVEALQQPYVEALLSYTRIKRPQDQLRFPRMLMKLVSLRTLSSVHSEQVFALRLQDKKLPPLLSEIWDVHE
Conditions: BL21
Listed here: items and their measured LC50.

Would you please look over these solved cases?
| SMILES DATA | LC50 |
| --- | --- |
| C[C@]1(C(=O)O)CCC[C@]2(C)c3cc(O)ccc3CC[C@@H]12 | > 50 µM |
| C=C(C)[C@@H]1CC[C@]2(C(=O)O)CC[C@]3(C)[C@H](CC[C@@H]4[C@@]5(C)CC[C@H](O)C(C)(C)[C@@H]5CC[C@]43C)[C@@H]12 | > 25 µM |
| C=C[C@@]1(C)CC=C2[C@@H](CC[C@@H]3[C@](C)(C(=O)NCC45CC6CC(CC(C6)C4)C5)CCC[C@@]23C)C1 | > 50 µM |

Attention now turns to another entry.
Q: Which LC50 is listed for CC(C)=CCC[C@@H](C)[C@H]1C[C@H](O)[C@@]2(C)C3=CC[C@H]4C(C)(C)[C@@H](O)CC[C@]4(C)C3=CC[C@]12C ?
A: > 15 µM
